// data source = patent US11434221B2

Test system: Echinochloa crus-galli (ECHCG)
Assay info: Pre-emergence herbicidal activity, glasshouse pot test
Type: in vivo
Parameters: key: 5=total damage to plant; 0=no damage to plant
Particulars: Rate 1000 g/ha; sprayed one day after sowing; evaluated after 13 days
Cut-off 2 on Control of weed species after pre-emergence application, ECHCG (damage score 0-5): below means Yes, at or above means No.

Example results:
Compound: CC(C)(C)OC(=O)N(C(=O)OC(C)(C)C)c1ncc(-c2cncc(F)c2)nc1C1=CCCCC1 [Compound H15]
Class assignment: Yes
//
Compound: CC(C)(C)OC(=O)Nc1ncc(-c2cncc(F)c2)nc1C(F)(F)F [Compound H4]
Class assignment: No
//
Compound: CC(C)(C)OC(=O)Nc1ncc(-c2cncc(F)c2)nc1CO [Compound H22]
Class assignment: Yes
//
Compound: Cc1nc(-c2cncc(F)c2)cnc1NC(=O)OC(C)(C)C [Compound H17]
Class assignment: No
//
Compound: CC(C)(C)OC(=O)Nc1ncc(-c2cncnc2)nc1C(F)F [Compound H30]
Class assignment: No

Data request: Please state whether Control of weed species after pre-emergence application, ECHCG (damage score 0-5) is below 2 for CC(C)(C)OC(=O)OCc1nc(-c2cncc(F)c2)cnc1N(C(=O)OC(C)(C)C)C(=O)OC(C)(C)C [Compound H18]
Data returned: No

Data request: Please state whether Control of weed species after pre-emergence application, ECHCG (damage score 0-5) is below 2 for COC(=O)c1nc(-c2cncc(F)c2)cnc1N(C(=O)OC(C)(C)C)C(=O)OC(C)(C)C [Compound H26]
Data returned: Yes

====

Tested on: Setaria faberi (SETFA)
Assay info: Pre-emergence herbicidal activity, glasshouse pot test
Assay type: in vivo
Design: key: 5=total damage to plant; 0=no damage to plant
Particulars: Rate 1000 g/ha; sprayed one day after sowing; evaluated after 13 days
Each item that follows carries a reported Control of weed species after pre-emergence application, SETFA (damage score 0-5).
Respond using a number only.

Field: example entries. Status: answers known.
Compound: CC(C)(C)OC(=O)N(C(=O)OC(C)(C)C)c1ncc(-c2cncc(F)c2)nc1C#N [Compound H9]
Numeric value: 5
--
Compound: CC(C)(C)OC(=O)N(C(=O)OC(C)(C)C)c1ncc(-c2cncnc2)nc1C(F)F [Compound H31]
Numeric value: 2
--
Compound: CSc1nc(-c2cncc(F)c2)cnc1NC(=O)OC(C)(C)C [Compound H24]
Numeric value: 5

Data request: Tell us which Control of weed species after pre-emergence application, SETFA (damage score 0-5) value is on record for CC(C)(C)OC(=O)Nc1ncc(-c2cncc(F)c2)nc1C#N [Compound H10]
Data returned: 4

Data request: Tell us which Control of weed species after pre-emergence application, SETFA (damage score 0-5) value is on record for CC(C)(C)OC(=O)Nc1ncc(-c2cncc(F)c2)nc1C(F)F [Compound H28]
Data returned: 4

====

Tested on: Setaria faberi (SETFA)
Assay info: Pre-emergence herbicidal activity, glasshouse pot test
Assay type: in vivo
Parameters: key: 5=total damage to plant; 0=no damage to plant
Particulars: Rate 1000 g/ha; sprayed one day after sowing; evaluated after 13 days
Cut-off 4 on Control of weed species after pre-emergence application, SETFA (damage score 0-5): below means rule met, at or above means rule not met.

Example results:
Chemical string: CC(C)(C)OC(=O)N(C(=O)OC(C)(C)C)c1ncc(-c2cncc(F)c2)nc1C1=CCCCC1
Class assignment: rule met

Chemical string: C#Cc1nc(-c2cncc(F)c2)cnc1N(C(=O)OC(C)(C)C)C(=O)OC(C)(C)C
Class assignment: rule met

Chemical string: CC(C)=Cc1nc(-c2cncc(F)c2)cnc1N(C(=O)OC(C)(C)C)C(=O)OC(C)(C)C
Class assignment: rule met

Chemical string: CC(C)(C)OC(=O)N(C(=O)OC(C)(C)C)c1ncc(-c2cncc(F)c2)nc1OCc1ccccc1
Class assignment: rule met

Chemical string: COC(=O)c1nc(-c2cncc(F)c2)cnc1N(C(=O)OC(C)(C)C)C(=O)OC(C)(C)C
Class assignment: rule not met

Read the next record carefully.
Data request: Please state whether Control of weed species after pre-emergence application, SETFA (damage score 0-5) is below 4 for `COc1nc(-c2cncc(F)c2)cnc1NC(=O)OC(C)(C)C`
Data returned: rule not met

====

System: Echinochloa crus-galli (ECHCG)
Assay info: Pre-emergence herbicidal activity, glasshouse pot test
Format: in vivo
Particulars: Rate 1000 g/ha; sprayed one day after sowing; evaluated after 13 days
Each item that follows carries a reported Control of weed species after pre-emergence application, ECHCG (damage score 0-5).
Respond using a number only.

Field: example entries. Status: answers known.
Chemical string: CSc1nc(-c2cncc(F)c2)cnc1NC(=O)OC(C)(C)C
Numeric value: 2
--
Chemical string: CC(C)(C)OC(=O)N(C(=O)OC(C)(C)C)c1ncc(-c2cncc(F)c2)nc1OCc1ccccc1
Numeric value: 1
--
Chemical string: Cc1nc(-c2cncc(F)c2)cnc1N(C(=O)OC(C)(C)C)C(=O)OC(C)(C)C
Numeric value: 4
--
Chemical string: COc1nc(-c2cncc(F)c2)cnc1NC(=O)OC(C)(C)C
Numeric value: 3
--
Chemical string: CC(C)(C)OC(=O)Nc1ncc(-c2cncc(F)c2)nc1C#N
Numeric value: 2
--
Chemical string: COc1nc(-c2cncc(F)c2)cnc1N(C(=O)OC(C)(C)C)C(=O)OC(C)(C)C
Numeric value: 3

Data request: Tell us which Control of weed species after pre-emergence application, ECHCG (damage score 0-5) value is on record for `CC(C)(C)OC(=O)N(C(=O)OC(C)(C)C)c1ncc(-c2cncc(F)c2)nc1Br`
Data returned: 1

Data request: Tell us which Control of weed species after pre-emergence application, ECHCG (damage score 0-5) value is on record for `CC(C)(C)OC(=O)N(C(=O)OC(C)(C)C)c1ncc(-c2cncnc2)nc1C(F)(F)F`
Data returned: 4

Data request: Tell us which Control of weed species after pre-emergence application, ECHCG (damage score 0-5) value is on record for `C=Cc1nc(-c2cncc(F)c2)cnc1N(C(=O)OC(C)(C)C)C(=O)OC(C)(C)C`
Data returned: 2

Data request: Tell us which Control of weed species after pre-emergence application, ECHCG (damage score 0-5) value is on record for `CC(C)=Cc1nc(-c2cncc(F)c2)cnc1N(C(=O)OC(C)(C)C)C(=O)OC(C)(C)C`
Data returned: 2

Data request: Tell us which Control of weed species after pre-emergence application, ECHCG (damage score 0-5) value is on record for `Cc1nc(-c2cncnc2)cnc1NC(=O)OC(C)(C)C`
Data returned: 2

Data request: Tell us which Control of weed species after pre-emergence application, ECHCG (damage score 0-5) value is on record for `CC(C)(C)OC(=O)N(C(=O)OC(C)(C)C)c1ncc(-c2cncc(F)c2)nc1C(F)(F)F`
Data returned: 5

Data request: Tell us which Control of weed species after pre-emergence application, ECHCG (damage score 0-5) value is on record for `CCc1nc(-c2cncc(F)c2)cnc1N(C(=O)OC(C)(C)C)C(=O)OC(C)(C)C`
Data returned: 1

Data request: Tell us which Control of weed species after pre-emergence application, ECHCG (damage score 0-5) value is on record for `CC(C)(C)OC(=O)N(C(=O)OC(C)(C)C)c1ncc(-c2cncnc2)nc1C(F)F`
Data returned: 2

Data request: Tell us which Control of weed species after pre-emergence application, ECHCG (damage score 0-5) value is on record for `CC(C)c1nc(-c2cncc(F)c2)cnc1N(C(=O)OC(C)(C)C)C(=O)OC(C)(C)C`
Data returned: 1

Data request: Tell us which Control of weed species after pre-emergence application, ECHCG (damage score 0-5) value is on record for `CC(C)(C)OC(=O)Nc1ncc(-c2cncc(F)c2)nc1C(F)F`
Data returned: 2

Data request: Tell us which Control of weed species after pre-emergence application, ECHCG (damage score 0-5) value is on record for `C#Cc1nc(-c2cncc(F)c2)cnc1N(C(=O)OC(C)(C)C)C(=O)OC(C)(C)C`
Data returned: 0

Data request: Tell us which Control of weed species after pre-emergence application, ECHCG (damage score 0-5) value is on record for `CC(C)(C)OC(=O)N(C(=O)OC(C)(C)C)c1ncc(-c2cncc(F)c2)nc1C1CC1`
Data returned: 1

Data request: Tell us which Control of weed species after pre-emergence application, ECHCG (damage score 0-5) value is on record for `C=C(C)c1nc(-c2cncc(F)c2)cnc1N(C(=O)OC(C)(C)C)C(=O)OC(C)(C)C`
Data returned: 3

Data request: Tell us which Control of weed species after pre-emergence application, ECHCG (damage score 0-5) value is on record for `Cc1nc(-c2cncc(F)c2)cnc1N(C)C(=O)OC(C)(C)C`
Data returned: 4

Data request: Tell us which Control of weed species after pre-emergence application, ECHCG (damage score 0-5) value is on record for `CC(C)(C)OC(=O)N(C(=O)OC(C)(C)C)c1ncc(-c2cncc(F)c2)nc1C#N`
Data returned: 2
